Reference source for all entries: paper PMC6912361

biological target: GSK3B (Homo sapiens, UniProt P49841)
Sequence (P49841 whole entry): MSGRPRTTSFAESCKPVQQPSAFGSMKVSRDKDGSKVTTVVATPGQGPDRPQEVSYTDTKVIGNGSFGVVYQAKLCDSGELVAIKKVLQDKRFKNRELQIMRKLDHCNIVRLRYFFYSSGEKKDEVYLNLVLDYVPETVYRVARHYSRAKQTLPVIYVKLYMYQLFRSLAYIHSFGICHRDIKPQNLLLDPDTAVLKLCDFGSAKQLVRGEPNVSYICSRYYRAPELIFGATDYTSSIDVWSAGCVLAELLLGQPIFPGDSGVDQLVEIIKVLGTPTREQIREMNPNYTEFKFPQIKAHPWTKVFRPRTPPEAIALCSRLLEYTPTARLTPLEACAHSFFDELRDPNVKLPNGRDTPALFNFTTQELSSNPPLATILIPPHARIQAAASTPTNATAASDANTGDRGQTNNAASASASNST
quantity.measured: Kd
Lab note: write values as number then unit, every time.

For the molecule `Cc1n[nH]c2ncc(C(=O)N3CCC[C@H]3c3ccc(Cl)cc3)cc12` , give its reported Kd.
190 nM

* * *

// values below are Kd; system is CDK19 (Homo sapiens)
Sequence (Q9BWU1 whole entry): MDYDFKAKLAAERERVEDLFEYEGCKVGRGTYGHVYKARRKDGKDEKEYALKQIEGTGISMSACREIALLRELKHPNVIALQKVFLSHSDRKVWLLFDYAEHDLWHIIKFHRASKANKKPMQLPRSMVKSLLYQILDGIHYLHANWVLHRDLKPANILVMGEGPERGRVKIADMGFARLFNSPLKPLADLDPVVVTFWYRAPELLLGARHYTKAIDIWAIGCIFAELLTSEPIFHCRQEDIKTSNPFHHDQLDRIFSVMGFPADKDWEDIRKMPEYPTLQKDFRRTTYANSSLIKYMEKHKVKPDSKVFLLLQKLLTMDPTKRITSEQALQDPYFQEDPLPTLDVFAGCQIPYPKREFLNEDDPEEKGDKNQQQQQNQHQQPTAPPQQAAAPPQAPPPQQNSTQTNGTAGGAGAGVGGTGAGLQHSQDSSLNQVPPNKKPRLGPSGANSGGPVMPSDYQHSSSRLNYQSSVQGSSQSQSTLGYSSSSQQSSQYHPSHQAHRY
Answer format: numeric, µM implied, no suffix.

Cc1n[nH]c2ncc(C(=O)N3CCC[C@H]3c3ccc(Cl)cc3)cc12 [Cmpd4] : 0.094

Proceeding to the next compound to report its Kd.
In one line, give reported Kd of the entry Cn1ncc2cc(-c3cnc(N)c(Cl)c3N3CCC4(CCNC4=O)CC3)ccc21 [Cmpd3] .
0.059

* * *

molecular target: CDK8 (Homo sapiens); test: Cell-based QPCR assay of CDK8/19-dependent gene expression, HEK293 CDK19 single-knockout (19KO) cells; design: CDK19 single-knockout (19KO); endogenous in cells; host or cells: HEK293 CDK19 knockout (19KO); conditions: IC50, CXCL1 mRNA expression, 19KO, HEK293 19KO, 1 h pre-treatment, then 10 ng/mL TNFα 2 h
Sequence (P49336 whole entry): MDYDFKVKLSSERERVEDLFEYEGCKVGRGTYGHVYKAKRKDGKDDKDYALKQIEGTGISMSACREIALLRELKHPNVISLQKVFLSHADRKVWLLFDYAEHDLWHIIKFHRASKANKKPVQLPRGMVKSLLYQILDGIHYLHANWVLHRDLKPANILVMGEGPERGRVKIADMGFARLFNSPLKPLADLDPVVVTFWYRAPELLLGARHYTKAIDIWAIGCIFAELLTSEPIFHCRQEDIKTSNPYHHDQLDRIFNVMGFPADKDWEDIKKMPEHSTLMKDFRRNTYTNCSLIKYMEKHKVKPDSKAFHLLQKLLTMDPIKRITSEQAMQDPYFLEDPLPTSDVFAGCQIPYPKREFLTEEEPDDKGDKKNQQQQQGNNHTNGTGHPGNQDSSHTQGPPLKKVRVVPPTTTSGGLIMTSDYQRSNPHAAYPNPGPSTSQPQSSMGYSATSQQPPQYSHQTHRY
Sequence (P24863 whole entry partner): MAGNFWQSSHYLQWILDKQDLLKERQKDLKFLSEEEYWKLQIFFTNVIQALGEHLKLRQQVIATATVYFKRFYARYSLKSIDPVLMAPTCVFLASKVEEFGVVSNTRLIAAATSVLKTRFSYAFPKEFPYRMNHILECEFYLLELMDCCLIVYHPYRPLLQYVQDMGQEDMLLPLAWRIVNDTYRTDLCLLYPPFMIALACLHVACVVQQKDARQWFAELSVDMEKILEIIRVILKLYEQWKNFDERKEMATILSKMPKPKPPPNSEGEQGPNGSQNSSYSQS
quantity.measured: IC50 (nM)
Give your result in nM as a bare value.

Cc1n[nH]c2ncc(C(=O)N3CCC[C@H]3c3ccc(Cl)cc3)cc12 : 3.2

We now examine a further molecule.
Please report IC50 with CDK8 (Homo sapiens) for item CN(C)C1CC23CCC4(O2)C(=CCC2(C)C(c5ccc6ccncc6c5)=CCC24)C=C3C(O)C1O (centres unmarked) [dCA, 16-didehydro-cortistatin A] .
1.4
